Origin of values: the nanobody polyreactivity screen of Harvey et al. (2022)

Measurement Notes: yeast display, Sf9 membrane polyspecificity reagent, FACS + sequencing; frameworks hold sequencing errors
Recorded Endpoint: polyreactivity (PSR sort gate)

Illustrative cases are given below, each with its answer.
Sequence | polyreactivity (PSR sort gate)
QVQLVESGGGLVQAGGSLRLSCAASGYIFTRNAMGWYRQAPGKDRELVAAISQGGGSTYYADSVKGRFTISRDNAKNTVYFQMNSLKPEDTAVYYCAAYFYTFVGYDYWGQGTQVTVSS | low polyreactivity
QVQLVESGGGLVQAGGSLRLSSADSGRIFSYYAMGGYRQAPGKEREFVATITYGGGSTYYADSVKGRFTISRDNAKNTVYLQMNSLKPEDTAVYYCAARGYSYRGWRMDYWGQGSQVTVSS | high polyreactivity
QVQLVESGVGLLQAGGSLRLSCADSGRIISGNAMVWYRQAPGKEREMVAAISSGGSTYYADSVKGRFTISRDNAMNTVYLQMNSLKPEATAVFYCNKRRGRKWPGNFSVVKLLMGSWGQGTQVTVSS | low polyreactivity
QVQLVESGGGLVQAGGSLRLSSAASGSIFGSNAMGWSRQAPGKERELVATITTSGGITYYADSVKGRFTISRDNAKNTVYLQMTSLKPEDTAVYYCAAAEGGGLVTYDYWGQGTQVTVSS | low polyreactivity

*Q* Identify measured polyreactivity (PSR sort gate) corresponding to QVQLVESGGSLVQSGGSLRLSCAASGSIFYRNAMGWYRQEPGKERELVASITSGGRTNYADSVKGRFTISRDNAKNTVYLQMNSLKPEDTAVYYCARGRASYTKSGPTPYTGYGYWGQGTQVTVSS
*A* low polyreactivity

*Q* Identify measured polyreactivity (PSR sort gate) corresponding to QVQLVESGGGLVQAGGSLRLSCAASGLTFEYNAMGWYRQAPGKERELVAAITSGDNTYYADSVKGRITISRDNAKNTVYLQMNSLKPEDTAVYYCAKYRWNWRYVSRGDSWGQGTQVTVSS
*A* high polyreactivity

====

Measurement Notes: yeast display, Sf9 membrane polyspecificity reagent, FACS + sequencing; frameworks hold sequencing errors
Recorded Endpoint: polyreactivity (PSR sort gate)

Illustrative cases are given below, each with its answer.
Sequence | polyreactivity (PSR sort gate)
QVQLVESGGGLVQAGGSLRLSCAASGSTFGYYAMRWYRQAPGKERELVAAIRSSGGGTYYADSVKGRFTISRDNAKNTVYLQMNSLKPEDTAVYYCATDAPILVNAEYDEWLEYDYWGQGTQVTVSS | low polyreactivity
QVQLVESGGGLVQAGGSLRLSCAASGIIFTGYAMGWYRQAPGKERELVAAISESGGSTYYADSVKGRFTISRDNAKNTVYLQMNSLKPEDTAVDYCAVDALSITYGYWGQGTQVTVSS | low polyreactivity
QVQLVESGGGLVQAGGSLRLSCAASGSTFDQNVMGWYRQAPGKERELVATINFSGDSTYYADSVKGRFTISRDNAKNTVYLQMNSLKPEDTAVYYCAVDWGEYIDTSVKRDISYYWGQGTQVTVSS | low polyreactivity
QVQLVESAGGLVQAGGTLRLSCDASGFIIYYYAMGWYRQAPGKERELVAAISRGGSTYYADSVKGRFTISRDNAKNTGYLQMISLKPEDTAVYYCASEDFPVYSYYYWGQGSQVTVSS | high polyreactivity
QVQLVESGGGLVQAGGSLRLSCAASGLTLVTIGMGWYSQAPAKERELVAAIDSTGGRTYYADSVKGRFTISRDNAKKTVYLQMTSLKPEDTAVSYCNRRWYARAAYWGQGTQVTVSS | high polyreactivity
QVQLVESGGGLVQAGGSLRLSCAASGIFLKYAKGWYRPAPGKERELVPAIRKRGGSTYYADSVKGRFTISRDNAKNTVYLQMNSLKPEDTAVYYCATRYTYHPGSAGFDYWGQGTQVTVSS | high polyreactivity
QVQLVESGGGLVQAGGSLRLSCAASGRIFYLYAMGWYRQAPGTEREMVAAITWSGGSTTYADSVKGRFTISRDNAKNTVYLQMNSLKPEDTAVYYCYADGWIFPSFSPMDYWGQGTQVTVSS | low polyreactivity
QDQLVESGGGLVQAGGSLRLSCAASGSTLARYGMGWYRQAPGKERELVAAISYSGGRTYYADSVKGRFTISRDNAKNTVYLQMNSLKPEDTAVYYCAARRVYVPRGPIEFYYWGQGTQVTVSS | high polyreactivity
QVQLVESGGGLVQAGGSLRLSCAASGRTFGVNAMGWYRQAPGKEREFVAAISRSTGSTYYADSVKGRFTISRDNAKNTVYLQMNSLKPEDTAVYYCAVKGASYPAYRGYDYWGQGTQVTVSS | high polyreactivity
QVQLQESGGGLVQAGGSLRLSCAASGYISLAQTIGWYRQAPGKEREFVASIALGSSTYYTDSVKGSFTISRDNAKTTVYLQMNSLKPEDTAVYYCAARVGASYAHDYWGQGTQVAVSS | low polyreactivity

*Q* Identify measured polyreactivity (PSR sort gate) corresponding to QVQLVESGGGLVQAGGSLRLSCAASGSTLTYNAMGWYRQAPGKERELVAVISARGGRTYYADSVKGRFTISRDNAKNTVYLQMNSLKPEDTAVYYCAAVFYYSYYRITSGDYWGQGTQVTVSS
*A* high polyreactivity

*Q* Identify measured polyreactivity (PSR sort gate) corresponding to QVQLVESGGGLDQAGGSLRLSCAAYGGTLYYNAMGWYRQAPGKEREFVAAISSRGGRTYYADSVKGRFTISRDNAKNTVYLQMNSLKPEDTAVYYCAGSRTGRTYPSNRMYYWGQGTQVSVSS
*A* high polyreactivity

*Q* Identify measured polyreactivity (PSR sort gate) corresponding to QVQLVESGGGLVQAGGSLRLICAASGSTFEAYAMGWYRQAPGKDSELVAAIRSSGSTSYADSVKGRFTISRDNAKNTVYLQMKSLKPEDTALYYGAARVRGYPRYKRDYWGQGTQVTVSS
*A* high polyreactivity

*Q* Identify measured polyreactivity (PSR sort gate) corresponding to QVQLVESGGGLVQAGCSLRLSCAASGLIFLPYAMGWYIQAPGKERELVAAINFSTGSTHYADSVKGRFTISRDNAKNTVFLQMNSLKPEDTAVYYCAVYTSQIYGYWGQGTQVNVSS
*A* high polyreactivity

*Q* Identify measured polyreactivity (PSR sort gate) corresponding to QVQLVESGGGLVQAGGSLRLSCAASGRIFHSNTKGWYRQAPGKERELVARISSVGSTNYADSVKGRFTISRDNAKNTVYLQMNSQKPEDTAVYYCAAQRYYTQSSYYLALYDFWGQGTQVTVSS
*A* low polyreactivity

*Q* Identify measured polyreactivity (PSR sort gate) corresponding to QVQLVESGGGLVQAGGSLRLSCAASGLIFTRYTMGWYRQAPGKERELVAGISWSGGRTYYADSVKGRFTISRDKAKYTVYLQMNSLKPEDTAVYYCAADSYYSRAYDYWGQGTQVTVSS
*A* high polyreactivity

*Q* Identify measured polyreactivity (PSR sort gate) corresponding to QVQHVESGGGLVQAGRSLRLICAASGSIFDGNAMGWYRQAPGKERELVAAINWPGTRTYYADSVKGRFTISRDNAKNTVYLQMNSLKPEETAVYNCNKKWYPYLEHDYWGLGTQVTVSS
*A* high polyreactivity

*Q* Identify measured polyreactivity (PSR sort gate) corresponding to QVQLVESGVGLVQAGGSLRLSCAASGFISVNNAMGWYRQAPGKERELVAAITDTDDSTYADSVKGRFTISRDNAKNTVYLQMNSLKPEDTAVYYCAAGIIYSNEPNITSYDYWGQGTQVTVSS
*A* low polyreactivity

*Q* Identify measured polyreactivity (PSR sort gate) corresponding to QVQLVESGGGLVQAGGSLRLSCAASGSIFEQYTMGWYRQAPGKERELVAAISYSGGRTYYADSVKGRFTISRDNAKNTVYLQMNSLKPEDTAVYYCATRGRDRRIYGYWGQGTQVTVSS
*A* high polyreactivity

*Q* Identify measured polyreactivity (PSR sort gate) corresponding to QVQLVESGGGIVQAGGSLRLSCAASGGIFFPNAMGWYRQAPGKERELVAAISWSAGSTYYADSVKVRFTISRDNAKNTVYLKKISLIPEDTAVYYCAAAGSNYTVWYGYYYWGQGTQVTVSS
*A* low polyreactivity

*Q* Identify measured polyreactivity (PSR sort gate) corresponding to QVQLEESGGGLVQAGGSLRLSCAASGNIFRDYAMGWYRQAPGKERELVAAISWSGGSTYYADSVKGRFTISRDNAKNTVYLQMNSLKPEDTAVYYCAARKPYSYNYWGQGTQVTVSS
*A* high polyreactivity
